test: Rate and extent of dissolution in No. 1 and No. 2 Heating Oils at 25° C. (colorimetric); format: physicochemical; settings: No. 2 Fuel Oil, 1 Minute, 25° C., aminoazobenzene dyes (Table 5)
Bucketed by reported Percent Dissolved, buckets being bottom range = under 1%, center range = from 1% up to 5%, top range = 5% and over

compound="CCCCCCCCCCCCNc1ccc2ccccc2c1N=Nc1ccc(N=Nc2ccccc2)cc1 [Example 28]" classname="top range"
compound="CCOCCOCCCNc1ccc2ccccc2c1N=Nc1ccc(N=Nc2ccccc2)cc1 [Example 22]" classname="bottom range"
compound="OCCOCCNc1ccc2ccccc2c1N=Nc1ccc(N=Nc2ccccc2)cc1 [Example 19]" classname="bottom range"
compound="CCCCC(CC)CNc1ccc2ccccc2c1N=Nc1ccc(N=Nc2ccccc2)cc1 (stereo not drawn) [Example 2]" classname="center range"
compound="CCNc1ccc2ccccc2c1N=Nc1ccc(N=Nc2ccccc2)cc1 [Example 16]" classname="center range"
compound="CCCCCCCCCCNc1ccc2ccccc2c1N=Nc1ccc(N=Nc2ccccc2)cc1 [Example 26]" classname="top range"
compound="CCCCCCCCNc1ccc2ccccc2c1N=Nc1ccc(N=Nc2ccccc2)cc1 [Example 24]" classname="top range"
compound="COCCCNc1ccc2ccccc2c1N=Nc1ccc(N=Nc2ccccc2)cc1 [Example 18]" classname="bottom range"
compound="c1ccc(N=Nc2ccc(N=Nc3c(NC4CCCCC4)ccc4ccccc34)cc2)cc1 [Example 21]" classname="center range"
compound="CCCCCCCNc1ccc2ccccc2c1N=Nc1ccc(N=Nc2ccccc2)cc1 [Example 23]" classname="top range"
compound="CCCCNc1ccc2ccccc2c1N=Nc1ccc(N=Nc2ccccc2)cc1 [Example 17]" classname="center range"
